Assignment: determine reported pIC50 for the given molecules.
Target: PI3K (Homo sapiens)
Construct: PI3 Kinase γ IC50; other: PI3 Kinase γ; other: PI3 Kinase γ isoform, fluorescence polarization
Test: Fluorescence polarization assay for PI3K
Type: biochemical
Conditions: PI3 Kinase γ; read-out: PI3 Kinase γ IC50
Give bare numbers, as −log10 of the molar value.

# map each molecule to its pIC50
1. Cn1ncc2c(N3CC4CCC(C3)O4)nc(-c3ccc(NC(=O)Nc4ccc(S(C)(=O)=O)cc4)cc3)nc21
2. O=C(Nc1ccncc1)Nc1ccc(-c2nc(N3CC4CCC(C3)O4)c3cnn(C4CCC5(CC4)OCCO5)c3n2)cc1
3. Cn1ncc2c(N3CC4CCC(C3)O4)nc(-c3ccc(NC(=O)Nc4ccc(N)cc4)cc3)nc21
4. CN(C)CCOc1ccc(NC(=O)Nc2ccc(-c3nc(N4CC5CCC(C4)O5)c4cnn(CCF)c4n3)cc2)cc1

**A:**
[6.36, 5.71, 5.96, 5.89]

# map each molecule to its pIC50
1. CCNC(=O)Nc1ccc(-c2nc(N3CC4CCC(C3)O4)c3cnn(C4CCN(C(=O)OC(C)C)CC4)c3n2)cc1
2. Cn1ncc2c(N3CC4CCC(C3)O4)nc(-c3ccc(NC(=O)NCCO)cc3)nc21

**A:**
[5.02, 5.24]

----------
Target: PI3K (Homo sapiens)
Construct: PI3 Kinase α IC50; other: PI3 Kinase α; other: PI3 Kinase α isoform, fluorescence polarization
Experiment: Fluorescence polarization assay for PI3K
Format: biochemical
Description: This assay is used to determine the IC50 of compounds of the present invention as it identifies inhibitors of PI3 kinase by measuring inhibition. […] Stop/detector mix is prepared by mixing 4 μL Red detector and 1.6 μL or 2.0 μL GST-GRP with 1 mL Stop buffer, which results in 10 nM probe and 70 nM GST-GRP). […] The plates are read after 30-90 minutes keeping the red probe solutions dark. […] Plates are read on machines with filters for Tamra. […]
pIC50: −log10 of the molar value.
measuredParameter: pIC50

**Q:** Find pIC50 (PI3K (Homo sapiens)) for the entry CN(C)c1cccc(OC(=O)Nc2ccc(-c3nc(N4CC5CCC(C4)O5)c4cnn(CC(F)(F)F)c4n3)cc2)c1
**A:** < 5.00

----------
Target: PI3K (Homo sapiens, UniProt P48736)
Construct: PI3 Kinase γ IC50; other: PI3 Kinase γ; other: PI3 Kinase γ isoform, fluorescence polarization
Sequence (P48736 whole entry, canonical isoform): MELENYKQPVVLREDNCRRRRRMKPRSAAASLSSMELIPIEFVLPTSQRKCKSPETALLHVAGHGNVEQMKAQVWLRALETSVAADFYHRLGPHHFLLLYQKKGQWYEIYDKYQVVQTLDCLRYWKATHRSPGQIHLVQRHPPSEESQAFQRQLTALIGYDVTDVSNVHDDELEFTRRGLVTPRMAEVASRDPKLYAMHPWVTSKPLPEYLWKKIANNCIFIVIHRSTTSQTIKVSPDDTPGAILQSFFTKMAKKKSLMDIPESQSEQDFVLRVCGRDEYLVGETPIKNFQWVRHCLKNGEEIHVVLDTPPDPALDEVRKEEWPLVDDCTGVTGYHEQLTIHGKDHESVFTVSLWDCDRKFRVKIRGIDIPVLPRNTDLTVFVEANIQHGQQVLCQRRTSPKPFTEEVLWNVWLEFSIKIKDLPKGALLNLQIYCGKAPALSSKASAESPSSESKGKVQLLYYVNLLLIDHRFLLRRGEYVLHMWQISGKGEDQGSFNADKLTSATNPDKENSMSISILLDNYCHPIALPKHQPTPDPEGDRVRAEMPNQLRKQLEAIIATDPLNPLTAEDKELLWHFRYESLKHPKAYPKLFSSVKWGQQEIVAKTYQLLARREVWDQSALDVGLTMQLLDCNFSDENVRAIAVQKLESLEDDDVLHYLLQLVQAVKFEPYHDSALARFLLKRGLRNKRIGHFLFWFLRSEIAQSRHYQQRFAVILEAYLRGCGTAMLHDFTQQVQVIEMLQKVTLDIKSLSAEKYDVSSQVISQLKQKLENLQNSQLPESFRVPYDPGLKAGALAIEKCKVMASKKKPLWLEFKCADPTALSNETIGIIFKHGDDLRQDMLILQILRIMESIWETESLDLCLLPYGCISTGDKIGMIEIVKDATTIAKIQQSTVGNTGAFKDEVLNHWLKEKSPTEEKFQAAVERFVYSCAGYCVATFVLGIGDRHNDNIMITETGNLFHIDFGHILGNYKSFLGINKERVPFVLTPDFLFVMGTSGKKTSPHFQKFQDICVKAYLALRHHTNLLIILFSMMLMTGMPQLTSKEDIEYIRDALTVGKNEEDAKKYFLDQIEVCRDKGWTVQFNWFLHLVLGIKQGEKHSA
Experiment: Fluorescence polarization assay for PI3K
Assay type: biochemical
Conditions: PI3 Kinase γ; read-out: PI3 Kinase γ IC50
measuredParameter: IC50 (µM)
One number for each entry, in µM.

Consider the reported IC50 for these compounds:
smilesRecord	targetUnderTest	valueUnits	IC50
CCOC(=O)N1CCC(n2ncc3c(N4CC5CCC(C4)O5)nc(-c4ccc(NC(=O)Nc5ccncc5)cc4)nc32)CC1	PI3K (Homo sapiens, UniProt P48736)	µM	1.8
CC(C)(C)OC(=O)N1CCC(n2ncc3c(N4CC5CCC(C4)O5)nc(-c4ccc(NC(=O)NCCF)cc4)nc32)CC1	PI3K (Homo sapiens, UniProt P48736)	µM	11
CCn1ncc2c(N3CC4CCC(C3)O4)nc(-c3ccc(NC(=O)Nc4ccc(N)nc4)cc3)nc21	PI3K (Homo sapiens, UniProt P48736)	µM	1.46

# context switch: different compound, same IC50
**Q:** Which IC50 is reported for this compound? CCn1ncc2c(N3CC4CCC(C3)O4)nc(-c3ccc(NC(=O)Nc4ccc(OCCN5CCOCC5)nc4)cc3)nc21
**A:** 4.75

----------
Biological target: Human mTOR (FLAG-TOR) (Homo sapiens, UniProt P42345)
Construct: FLAG
Test: Human mTOR kinase assay with purified enzyme, DELFIA format
Format: biochemical
Conditions: purified human mTOR enzyme, DELFIA format
Hi! Could you tag entries with IC50 below 2 nM as fulfilled, and those at or above as not fulfilled? Much appreciated.

Worked cases, answers included:
compound	targetUnderTest	qualitativeLabel
CNC(=O)Nc1ccc(-c2nc(N3CC4CCC(C3)O4)c3cnn(C4CCC5(CCCO5)CC4)c3n2)cc1 (single isomer, unassigned)	Human mTOR (FLAG-TOR) (Homo sapiens, UniProt P42345)	fulfilled
O=C(Nc1ccc(-c2nc(N3CC4CCC(C3)O4)c3cnn(C4CCC5(CCCO5)CC4)c3n2)cc1)OCCO (single isomer, unassigned)	Human mTOR (FLAG-TOR) (Homo sapiens, UniProt P42345)	fulfilled

**Q:** Lab log: compare recorded IC50 with 2 nM; is it strictly lower for O=C(NCCF)Nc1ccc(-c2nc(N3CC4CCC(C3)O4)c3sccc3n2)cc1 ?
**A:** fulfilled

**Q:** Lab log: compare recorded IC50 with 2 nM; is it strictly lower for CN1CCN(c2ccc(NC(=O)Nc3ccc(-c4nc(N5CC6CCC(C5)O6)c5cnn(C6CCC7(CCCO7)CC6)c5n4)cc3)cc2)CC1 (single isomer, unassigned) ?
**A:** fulfilled

**Q:** Lab log: compare recorded IC50 with 2 nM; is it strictly lower for CCn1nc(C=O)c2c(N3CC4CCC(C3)O4)nc(-c3ccc(NC(=O)NC)cc3)nc21 ?
**A:** not fulfilled

**Q:** Lab log: compare recorded IC50 with 2 nM; is it strictly lower for Nc1ccc(-c2nc(N3CC4CCC(C3)O4)c3sccc3n2)cc1 ?
**A:** not fulfilled

**Q:** Lab log: compare recorded IC50 with 2 nM; is it strictly lower for O=C(Nc1ccc(-c2nc(N3CC4CCC(C3)O4)c3cnn(C4CCC(N5CCCC5)CC4)c3n2)cc1)Nc1cccnc1 (stereo not shown) ?
**A:** not fulfilled

**Q:** Lab log: compare recorded IC50 with 2 nM; is it strictly lower for CNC(=O)Nc1ccc(-c2nc(N3CC4CCC(C3)O4)c3cnn(C4CCC(N5CCCC5)CC4)c3n2)cc1 (stereo not shown) ?
**A:** not fulfilled

**Q:** Lab log: compare recorded IC50 with 2 nM; is it strictly lower for c1cncc(CN2CCC(n3ncc4c(N5CC6CCC(C5)O6)nc(-c5ccc6[nH]ccc6c5)nc43)CC2)c1 ?
**A:** not fulfilled

**Q:** Lab log: compare recorded IC50 with 2 nM; is it strictly lower for O=C(Nc1ccncc1)Nc1ccc(-c2nc(N3CC4CNCC(C3)O4)c3cnn(CC(F)(F)F)c3n2)cc1 ?
**A:** not fulfilled

**Q:** Lab log: compare recorded IC50 with 2 nM; is it strictly lower for O=C(Nc1ccc(-c2nc(N3C4CCC3COC4)c3cnn(CC(F)(F)F)c3n2)cc1)Nc1ccc(N2CCNCC2)cc1 ?
**A:** fulfilled

**Q:** Lab log: compare recorded IC50 with 2 nM; is it strictly lower for COCC(COC)n1ncc2c(N3CC4CCC(C3)O4)nc(-c3ccc(NC(=O)Nc4ccc(N5CCNCC5)cc4)cc3)nc21 ?
**A:** not fulfilled

**Q:** Lab log: compare recorded IC50 with 2 nM; is it strictly lower for COC1CCC(n2ncc3c(N4CC5CCC(C4)O5)nc(-c4ccc(NC(=O)Nc5ccc(CO)cc5)cc4)nc32)CC1 (stereo not shown) ?
**A:** fulfilled

**Q:** Lab log: compare recorded IC50 with 2 nM; is it strictly lower for CN1CCN(C2CCC(n3ncc4c(N5CC6CCC(C5)O6)nc(-c5ccc(NC(=O)OCCO)cc5)nc43)CC2)CC1 (stereo not shown) ?
**A:** fulfilled

**Q:** Lab log: compare recorded IC50 with 2 nM; is it strictly lower for CO[C@H]1CC[C@H](n2ncc3c(N4CC5CCC(C4)O5)nc(-c4ccc(NC(=O)NC5CC5)cc4)nc32)CC1 (relative stereo) ?
**A:** fulfilled

**Q:** Lab log: compare recorded IC50 with 2 nM; is it strictly lower for CNC(=O)Nc1ccc(-c2nc(N3CC4COC(C3)O4)c3cnn(C)c3n2)cc1 (stereo not shown) ?
**A:** not fulfilled

**Q:** Lab log: compare recorded IC50 with 2 nM; is it strictly lower for COCC(COC)n1ncc2c(N3CC4CCC(C3)O4)nc(-c3ccc(NC(=O)NCCO)cc3)nc21 ?
**A:** not fulfilled

**Q:** Lab log: compare recorded IC50 with 2 nM; is it strictly lower for Nc1ncc(-c2nc(N3CC4CCC(C3)O4)c3sccc3n2)cn1 ?
**A:** not fulfilled

**Q:** Lab log: compare recorded IC50 with 2 nM; is it strictly lower for CCNC(=O)Nc1ccc(-c2nc(N3CC4CCC(C3)O4)c3sc(CN4CCN(S(C)(=O)=O)CC4)cc3n2)cc1 ?
**A:** fulfilled

**Q:** Lab log: compare recorded IC50 with 2 nM; is it strictly lower for COC(=O)N1CCC(n2ncc3c(N4C5CCC4COC5)nc(-c4ccc(NC(=O)OCCO)cc4)nc32)CC1 ?
**A:** fulfilled

**Q:** Lab log: compare recorded IC50 with 2 nM; is it strictly lower for CCNC(=O)Nc1ccc(-c2nc(N3C4CCC3COC4)c3cnn(C4CCN(C(=O)OC)CC4)c3n2)cc1 ?
**A:** fulfilled

**Q:** Lab log: compare recorded IC50 with 2 nM; is it strictly lower for O=C(Nc1ccc(-c2nc(N3CC4CCC(C3)O4)c3cnn(C4CCC5(CC4)OCCO5)c3n2)cc1)Nc1cccnc1 ?
**A:** fulfilled

**Q:** Lab log: compare recorded IC50 with 2 nM; is it strictly lower for COCC(COC)n1ncc2c(N3CC4CCC(C3)O4)nc(-c3ccc(NC(=O)Nc4ccc(C(=O)NN(C)C)cc4)cc3)nc21 ?
**A:** not fulfilled
